System under test: T1, monovalent hVISTA-ECD (human VISTA extracellular domain with His tail) (human, UniProt Q9H7M9 33-193)
T1 construct: analyte flowed over captured antibody; also called huVISTA-His
T1 sequence (Q9H7M9 other isoform, or with tags, fused parts or gaps limits assumed): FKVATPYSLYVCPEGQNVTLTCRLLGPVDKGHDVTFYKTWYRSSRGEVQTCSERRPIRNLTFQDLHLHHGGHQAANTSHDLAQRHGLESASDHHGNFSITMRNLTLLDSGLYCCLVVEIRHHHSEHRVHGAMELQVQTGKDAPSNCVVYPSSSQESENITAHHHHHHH
Assay: SPR, pH 7.4
Answer each item with its documented pKd.
Expect pKd as a plain number equal to -log10 of the molar concentration.

Need pKd of P1-065326 (41F11_VH_D31E/Y50W/S55E/L96E/Y100E VK_A64G) (antibody, V domains shown, Kabat positions; also called P1-065326-1) VH: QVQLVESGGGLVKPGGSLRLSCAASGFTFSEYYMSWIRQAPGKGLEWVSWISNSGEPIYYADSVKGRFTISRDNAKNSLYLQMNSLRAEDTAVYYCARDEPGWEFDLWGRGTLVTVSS VL: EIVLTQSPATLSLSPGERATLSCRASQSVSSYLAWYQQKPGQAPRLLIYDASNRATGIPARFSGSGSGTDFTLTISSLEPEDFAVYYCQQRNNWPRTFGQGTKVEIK , thanks. 9.14

Need pKd of VISTA.4 A64G (41F11 Vk:A64G) (antibody, human IgG1, kappa, V domains shown, IgG1.3; also called P1-061520; P1-061520-10) VH: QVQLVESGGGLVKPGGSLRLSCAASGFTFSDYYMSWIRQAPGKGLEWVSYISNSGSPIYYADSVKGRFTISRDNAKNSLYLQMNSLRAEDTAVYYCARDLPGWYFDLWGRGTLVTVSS VL: EIVLTQSPATLSLSPGERATLSCRASQSVSSYLAWYQQKPGQAPRLLIYDASNRATGIPARFSGSGSGTDFTLTISSLEPEDFAVYYCQQRNNWPRTFGQGTKVEIKR , thanks. 8.77

Need pKd of P1-065333 (41F11_VH_T28P/Y50W/S55E/L96E/Y100E VK_A64G) (antibody, human IgG1, kappa, V domains shown, IgG1.3; also called P1-065333-1; VISTA.4 pH-independent progeny) VH: QVQLVESGGGLVKPGGSLRLSCAASGFPFSDYYMSWIRQAPGKGLEWVSWISNSGEPIYYADSVKGRFTISRDNAKNSLYLQMNSLRAEDTAVYYCARDEPGWEFDLWGRGTLVTVSS VL: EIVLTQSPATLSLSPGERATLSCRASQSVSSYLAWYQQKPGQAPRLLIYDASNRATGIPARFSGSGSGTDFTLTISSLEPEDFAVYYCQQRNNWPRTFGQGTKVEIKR , thanks. 8.66

Need pKd of P1-064391 (41F11_HC_Mutant: D31E/Y50W/S55E/Y100E 41F11_LC_Mutant: V29D/A64G/R91T) (antibody, V domains shown, Kabat positions; also called P1-064391-1) VH: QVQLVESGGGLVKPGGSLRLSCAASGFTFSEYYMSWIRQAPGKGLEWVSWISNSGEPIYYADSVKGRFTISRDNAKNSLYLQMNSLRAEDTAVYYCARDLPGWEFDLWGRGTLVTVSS VL: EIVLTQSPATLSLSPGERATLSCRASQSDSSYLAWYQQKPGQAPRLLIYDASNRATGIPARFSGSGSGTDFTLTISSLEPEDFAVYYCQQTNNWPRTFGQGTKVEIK , thanks. 7.51

Need pKd of P1-064510 (41F11_Vk_A25E/V29D/A64G/R91T) (antibody, V domains shown, also called P1-064510-1) VH: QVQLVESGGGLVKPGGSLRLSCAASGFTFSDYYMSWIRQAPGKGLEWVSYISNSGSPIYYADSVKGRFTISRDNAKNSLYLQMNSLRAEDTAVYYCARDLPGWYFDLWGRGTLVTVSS VL: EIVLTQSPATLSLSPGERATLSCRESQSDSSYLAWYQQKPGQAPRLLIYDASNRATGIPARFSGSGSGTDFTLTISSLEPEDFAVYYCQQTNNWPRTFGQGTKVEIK , thanks. 8.47

Need pKd of P1-064392 (41F11_HC_Mutant: D31E/Y50W/S55E/Y100E 41F11_LC_Mutant: V29D/A64G/Q89E/R91T) (antibody, V domains shown, Kabat positions; also called P1-064392-1) VH: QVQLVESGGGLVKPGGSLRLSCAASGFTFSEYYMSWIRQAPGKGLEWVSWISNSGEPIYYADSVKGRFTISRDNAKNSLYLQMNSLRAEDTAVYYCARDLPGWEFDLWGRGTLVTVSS VL: EIVLTQSPATLSLSPGERATLSCRASQSDSSYLAWYQQKPGQAPRLLIYDASNRATGIPARFSGSGSGTDFTLTISSLEPEDFAVYYCEQTNNWPRTFGQGTKVEIK , thanks. 7.96
